target: T1, human PD-L1-Fc (R&D Systems) chimeric protein (human, UniProt Q9NZQ7 19-239); test: SPR (Biacore T200), PD-L1-Fc amine-coupled to CM5, Affimer analyte
T1 construct: Bought reagent; also called rhPD-L1-Fc; huPD-L1; Fc part of the bought chimera not given, not described
T1 sequence (Q9NZQ7 19-239, change not shown): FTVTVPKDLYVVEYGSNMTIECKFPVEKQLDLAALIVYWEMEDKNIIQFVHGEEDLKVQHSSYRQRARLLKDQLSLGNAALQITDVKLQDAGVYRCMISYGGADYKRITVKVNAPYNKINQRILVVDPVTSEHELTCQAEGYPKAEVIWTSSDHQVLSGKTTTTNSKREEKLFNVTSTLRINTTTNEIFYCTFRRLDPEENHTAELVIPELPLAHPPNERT

>  <binder>
AVA04-236 XT7 (designed binder) MIPRGLSEAKPATPEIQEIVDKVKPQLEEKTNETYGKLEAVQYKTQVLAKEHGPDSWWSTNYYIKVRAGDNKYMHLKVFNGPQEKNQWVEEADRVLTGYQVDKNKDDELTGFGGGGSGGGGSGGGGSGGGGSGGGGSGGGGSMIPRGLSEAKPATPEIQEIVDKVKPQLEEKTNETYGKLEAVQYKTQVLANFFQRRWPGSTNYYIKVRAGDNKYMHLKVFNGPWKFRNTDRGADRVLTGYQVDKNKDDELTGFHHHHHH

>  <koff, s⁻¹>
0.00763

$$$$
>  <binder>
AVA04-261 (designed binder) MIPRGLSEAKPATPEIQEIVDKVKPQLEEKTNETYGKLEAVQYKTQVLAHAYGPRDWDSTNYYIKVRAGDNKYMHLKVFNGPPADHVLEEAADRVLTGYQVDKNKDDELTGF

>  <koff, s⁻¹>
0.0109

$$$$
>  <binder>
AVA04-261 XT10 (designed binder) MIPRGLSEAKPATPEIQEIVDKVKPQLEEKTNETYGKLEAVQYKTQVLAHAYGPRDWDSTNYYIKVRAGDNKYMHLKVFNGPPADHVLEEAADRVLTGYQVDKNKDDELTGFAEAAAKEAAAKEAAAKEAAAKEAAAKEAAAKMIPRGLSEAKPATPEIQEIVDKVKPQLEEKTNETYGKLEAVQYKTQVLANFFQRRWPGSTNYYIKVRAGDNKYMHLKVFNGPWKFRNTDRGADRVLTGYQVDKNKDDELTGFHHHHHH

>  <koff, s⁻¹>
0.00826

$$$$
